B1: Twister Ribozyme (parent)
chain: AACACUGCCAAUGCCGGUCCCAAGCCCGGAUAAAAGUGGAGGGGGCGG

# Variants of: B1
# experimental.details: self-cleavage, relative activity (ratio to wild type); higher = more cleavage; co-transcriptional
measured.endpoint: self-cleavage
Number only, please.

C27G G47A ... 0.0917
A4U C46G ... 0.105
U31C G36U ... 0.321
U6G A32G ... 0.337
A10C A34G ... 0.88

Turning now to a further variant:
Reported self-cleavage for C3G C27A was 0.0737

Data provenance: the RNAGym collection of RNA variant scans (doi:10.7554/elife.80360)
